As shown below, each of these compounds has a reported IC50 value.
System: IEC6 cells
PROTOCOL: Cell viability assay IEC6
Format: cell-based
ASSAY CONTEXT: Rattus norvegicus, IEC-6, 144 h; 6 days, CellTiterGlo

Consider the following illustrative entries.
CCc1cc2ncc(CN3CCN(CC4CCN(c5ccc(C(=O)N[C@H]6CC[C@H](N(C)c7ccc(C#N)c(Cl)c7)CC6)nn5)CC4)CC3)cc2[nH]c1=O ... > 30 µM
CCc1cc2ncc(CN3CCN(c4ccc(-c5nnc([C@H](Nc6ccc(C#N)c(Cl)c6C)[C@H](C)O)o5)cc4)CC3)cc2[nH]c1=O ... 0.5 to 5 µM
CCc1cc2ncc(CN3CCN(c4ccc(-c5nnc([C@H]6[C@H](C)OC(=O)N6c6ccc(C#N)c(Cl)c6)o5)cc4)CC3)cc2[nH]c1=O ... > 30 µM
CCc1cc2ncc(CN3CCC(N(C)C(=O)COc4cc(F)c([C@@H]5c6[nH]c7ccccc7c6C[C@@H](C)N5CC(C)(C)F)c(F)c4)CC3)cc2[nH]c1=O ... 0.5 to 5 µM
CCc1cc2ncc(CN3CCN(CCOc4cc(F)c([C@@H]5c6[nH]c7ccccc7c6C[C@@H](C)N5CC(C)(C)F)c(F)c4)CC3)cc2[nH]c1=O ... 0.5 to 5 µM

Which IC50 value belongs to CCc1cc2ncc(CN3CCN(Cc4ccc(-c5nnc([C@H](Nc6ccc(C#N)c(Cl)c6C)[C@H](C)O)o5)cc4)CC3)cc2[nH]c1=O ? > 30 µM
